- SYSTEM TESTED: Acetylcholinesterase (Rattus norvegicus)
- Sequence (P37136 whole entry): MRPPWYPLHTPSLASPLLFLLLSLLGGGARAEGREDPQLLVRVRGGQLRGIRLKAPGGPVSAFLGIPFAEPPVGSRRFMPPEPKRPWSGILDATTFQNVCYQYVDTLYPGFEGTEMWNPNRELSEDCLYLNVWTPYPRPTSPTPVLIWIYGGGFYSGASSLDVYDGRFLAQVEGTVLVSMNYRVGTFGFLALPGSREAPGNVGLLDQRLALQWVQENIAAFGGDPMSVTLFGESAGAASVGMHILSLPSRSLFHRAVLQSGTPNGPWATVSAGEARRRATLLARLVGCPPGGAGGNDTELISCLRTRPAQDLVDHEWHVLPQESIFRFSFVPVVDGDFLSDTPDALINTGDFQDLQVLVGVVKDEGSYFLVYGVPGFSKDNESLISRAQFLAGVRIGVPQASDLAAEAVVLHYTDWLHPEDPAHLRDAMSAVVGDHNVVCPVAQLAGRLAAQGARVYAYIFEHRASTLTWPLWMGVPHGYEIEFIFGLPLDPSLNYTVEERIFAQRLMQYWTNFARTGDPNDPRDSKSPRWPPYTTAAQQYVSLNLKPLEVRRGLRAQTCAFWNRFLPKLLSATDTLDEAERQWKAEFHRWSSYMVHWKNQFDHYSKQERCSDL
- MEASUREMENT DESCRIPTION: Antagonist activity at Acetylcholinesterase in Sprague-Dawley rat phrenic nerve-hemidiaphragm assessed as reversal of d-tubocurarine induced neuromuscular blockade after 15 mins
- STATED CONDITIONS: read-out: I50
Simple rule here: IC50 less than 50 nM is MET, otherwise NOT MET.

Check out these entries, answers already filled in.
>>> df
                                   compound                             system_tested  assigned_class
0  CC1=CC2Cc3nc4cc(Cl)ccc4c(N)c3C(C1)C2 (racemic) [HUPRINE Y]  Acetylcholinesterase (Rattus norvegicus)         NOT MET
1  CC1=C[C@@H]2Cc3nc4cc(F)ccc4c(N)c3[C@H](C1)C2 (racemic)  Acetylcholinesterase (Rattus norvegicus)             MET
2  CC1=CC2Cc3nc4cc(Cl)ccc4c(N)c3C(C1)C2 (single isomer, unassigned; (-)) [HUPRINE Y]  Acetylcholinesterase (Rattus norvegicus)             MET
3  CCC1=CC2Cc3nc4ccccc4c(N)c3C(C1)C2 (racemic)  Acetylcholinesterase (Rattus norvegicus)         NOT MET

Please let me know if CC1=CC2Cc3nc4ccccc4c(N)c3C(C1)C2 (racemic) shows IC50 below 50 nM.
NOT MET

* * *

- SYSTEM TESTED: Amine oxidase [flavin-containing] B (Homo sapiens, UniProt P27338)
- Sequence (P27338 whole entry): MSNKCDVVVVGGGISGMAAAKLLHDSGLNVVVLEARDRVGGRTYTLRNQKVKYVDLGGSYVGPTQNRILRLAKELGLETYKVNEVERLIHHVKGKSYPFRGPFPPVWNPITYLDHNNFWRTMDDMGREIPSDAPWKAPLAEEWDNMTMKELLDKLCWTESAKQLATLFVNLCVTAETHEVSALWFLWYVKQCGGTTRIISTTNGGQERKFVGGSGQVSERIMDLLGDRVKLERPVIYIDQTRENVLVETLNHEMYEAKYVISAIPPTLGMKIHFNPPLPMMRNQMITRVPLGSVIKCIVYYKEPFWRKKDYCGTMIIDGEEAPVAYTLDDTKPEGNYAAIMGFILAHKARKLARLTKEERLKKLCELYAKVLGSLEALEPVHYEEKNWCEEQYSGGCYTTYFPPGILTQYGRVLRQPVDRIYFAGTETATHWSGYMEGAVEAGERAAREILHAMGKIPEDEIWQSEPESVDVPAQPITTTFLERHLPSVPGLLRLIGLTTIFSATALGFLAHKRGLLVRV
- MEASUREMENT DESCRIPTION: Inhibition of recombinant human MAO-B using p-tyramine as substrate preincubated for 15 mins followed by substrate addition and measured over 15 mins by Amplex red reagent/horseradish peroxidase coupled fluorescence assay
VALUE TYPE: IC50 (µM)
Could you give me the number in µM? Just the number is fine.

What value of IC50 has been recorded for this entry: Cc1cc(=O)oc2ccc(OC/C=C/CCn3cnc4c(N5CCCCC5)ncnc43)cc12
6.8

* * *

- SYSTEM TESTED: Sodium-dependent serotonin transporter (Rattus norvegicus)
- Sequence (P31652 whole entry): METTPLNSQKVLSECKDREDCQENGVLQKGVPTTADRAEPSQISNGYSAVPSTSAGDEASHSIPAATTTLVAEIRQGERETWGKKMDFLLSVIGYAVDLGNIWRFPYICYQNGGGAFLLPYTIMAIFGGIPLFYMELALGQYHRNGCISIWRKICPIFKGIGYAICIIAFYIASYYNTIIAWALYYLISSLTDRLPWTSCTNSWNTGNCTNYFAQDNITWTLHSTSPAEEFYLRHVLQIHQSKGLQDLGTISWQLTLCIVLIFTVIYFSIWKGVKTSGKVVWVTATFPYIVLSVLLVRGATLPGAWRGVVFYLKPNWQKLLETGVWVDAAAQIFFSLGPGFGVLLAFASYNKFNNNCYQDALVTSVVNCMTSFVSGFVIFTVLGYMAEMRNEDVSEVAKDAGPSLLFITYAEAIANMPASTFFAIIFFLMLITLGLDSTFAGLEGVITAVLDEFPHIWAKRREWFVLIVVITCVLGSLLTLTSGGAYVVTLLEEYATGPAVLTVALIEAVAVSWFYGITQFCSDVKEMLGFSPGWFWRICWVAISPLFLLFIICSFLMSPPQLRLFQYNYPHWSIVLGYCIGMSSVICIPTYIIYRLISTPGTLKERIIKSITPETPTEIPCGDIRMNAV
- MEASUREMENT DESCRIPTION: Inhibition of rat synaptosome SERT assessed as reduction in [3H]5-HT uptake
Please assign FALSE whenever IC50 is at or above 40 nM, and TRUE whenever it is below.

                                   compound                             system_tested  assigned_class
0  CN[C@@H](CCOc1ccc([N+](=O)[O-])cc1)c1ccc(OC(=O)N(C)C)cc1  Sodium-dependent serotonin transporter (Rattus norvegicus)           FALSE

IC50 strictly < 40 nM for this compound? CN(C)C(=O)Oc1ccc([C@@H](N)CCOc2ccc([N+](=O)[O-])cc2)cc1
FALSE

Please do the same for CN[C@H](CCOc1ccc([N+](=O)[O-])cc1)c1ccc(OC(=O)N(C)C)cc1 as well.
FALSE

// same read-out, input: CN(C)C(=O)Oc1ccc2c(c1)C=CCN(C)[C@H]2CCOc1ccc([N+](=O)[O-])cc1
FALSE

Check CNC(CCOc1ccc([N+](=O)[O-])cc1)c1ccc(OC(=O)N(C)C)cc1 (racemic) too.
FALSE

Repeat for the following compound: CN(C)C(=O)Oc1ccc2c(c1)C=CCN[C@@H]2CCOc1ccc([N+](=O)[O-])cc1
TRUE
